B1: ETS1 (parent)
chain: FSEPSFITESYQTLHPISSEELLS

variants of: B1; experiment: protein stability index of a GFP-peptide fusion (GPS, HEK-293T) (PSI 1-6); higher = more stable; details: c terminus: a fixed tail appended;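 also: lentivirally expressed fusions sorted by FACS into six bins by GFP to DsRed ratio, PSI derived from sequencing read proportions per bin multiplied by bin number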
Each entry below lists one item and its recorded protein stability index value.
Simply state the number, no unit and no words.

Some variants with recorded protein stability index:
What does the data say about its protein stability index? Entry: S10V
2.52

What does the data say about its protein stability index? Entry: Q12A
2.1

What does the data say about its protein stability index? Entry: L14S
2.44

What does the data say about its protein stability index? Entry: S24W
1.56

What does the data say about its protein stability index? Entry: I17D
2.12

New cases:
What does the data say about its protein stability index? Entry: T8C
2.22

What does the data say about its protein stability index? Entry: P16K
1.88

What does the data say about its protein stability index? Entry: F6T
4.34
